Give IC50 for every item shown.
Biological target: hCaV2.2 (Homo sapiens, UniProt Q00975)
Construct: expressed in transfected cells; plasmids pCIN5-hCaV2.2, pCIH-hCaV β3, pCIP-α2δ1
Sequence (Q00975 whole entry): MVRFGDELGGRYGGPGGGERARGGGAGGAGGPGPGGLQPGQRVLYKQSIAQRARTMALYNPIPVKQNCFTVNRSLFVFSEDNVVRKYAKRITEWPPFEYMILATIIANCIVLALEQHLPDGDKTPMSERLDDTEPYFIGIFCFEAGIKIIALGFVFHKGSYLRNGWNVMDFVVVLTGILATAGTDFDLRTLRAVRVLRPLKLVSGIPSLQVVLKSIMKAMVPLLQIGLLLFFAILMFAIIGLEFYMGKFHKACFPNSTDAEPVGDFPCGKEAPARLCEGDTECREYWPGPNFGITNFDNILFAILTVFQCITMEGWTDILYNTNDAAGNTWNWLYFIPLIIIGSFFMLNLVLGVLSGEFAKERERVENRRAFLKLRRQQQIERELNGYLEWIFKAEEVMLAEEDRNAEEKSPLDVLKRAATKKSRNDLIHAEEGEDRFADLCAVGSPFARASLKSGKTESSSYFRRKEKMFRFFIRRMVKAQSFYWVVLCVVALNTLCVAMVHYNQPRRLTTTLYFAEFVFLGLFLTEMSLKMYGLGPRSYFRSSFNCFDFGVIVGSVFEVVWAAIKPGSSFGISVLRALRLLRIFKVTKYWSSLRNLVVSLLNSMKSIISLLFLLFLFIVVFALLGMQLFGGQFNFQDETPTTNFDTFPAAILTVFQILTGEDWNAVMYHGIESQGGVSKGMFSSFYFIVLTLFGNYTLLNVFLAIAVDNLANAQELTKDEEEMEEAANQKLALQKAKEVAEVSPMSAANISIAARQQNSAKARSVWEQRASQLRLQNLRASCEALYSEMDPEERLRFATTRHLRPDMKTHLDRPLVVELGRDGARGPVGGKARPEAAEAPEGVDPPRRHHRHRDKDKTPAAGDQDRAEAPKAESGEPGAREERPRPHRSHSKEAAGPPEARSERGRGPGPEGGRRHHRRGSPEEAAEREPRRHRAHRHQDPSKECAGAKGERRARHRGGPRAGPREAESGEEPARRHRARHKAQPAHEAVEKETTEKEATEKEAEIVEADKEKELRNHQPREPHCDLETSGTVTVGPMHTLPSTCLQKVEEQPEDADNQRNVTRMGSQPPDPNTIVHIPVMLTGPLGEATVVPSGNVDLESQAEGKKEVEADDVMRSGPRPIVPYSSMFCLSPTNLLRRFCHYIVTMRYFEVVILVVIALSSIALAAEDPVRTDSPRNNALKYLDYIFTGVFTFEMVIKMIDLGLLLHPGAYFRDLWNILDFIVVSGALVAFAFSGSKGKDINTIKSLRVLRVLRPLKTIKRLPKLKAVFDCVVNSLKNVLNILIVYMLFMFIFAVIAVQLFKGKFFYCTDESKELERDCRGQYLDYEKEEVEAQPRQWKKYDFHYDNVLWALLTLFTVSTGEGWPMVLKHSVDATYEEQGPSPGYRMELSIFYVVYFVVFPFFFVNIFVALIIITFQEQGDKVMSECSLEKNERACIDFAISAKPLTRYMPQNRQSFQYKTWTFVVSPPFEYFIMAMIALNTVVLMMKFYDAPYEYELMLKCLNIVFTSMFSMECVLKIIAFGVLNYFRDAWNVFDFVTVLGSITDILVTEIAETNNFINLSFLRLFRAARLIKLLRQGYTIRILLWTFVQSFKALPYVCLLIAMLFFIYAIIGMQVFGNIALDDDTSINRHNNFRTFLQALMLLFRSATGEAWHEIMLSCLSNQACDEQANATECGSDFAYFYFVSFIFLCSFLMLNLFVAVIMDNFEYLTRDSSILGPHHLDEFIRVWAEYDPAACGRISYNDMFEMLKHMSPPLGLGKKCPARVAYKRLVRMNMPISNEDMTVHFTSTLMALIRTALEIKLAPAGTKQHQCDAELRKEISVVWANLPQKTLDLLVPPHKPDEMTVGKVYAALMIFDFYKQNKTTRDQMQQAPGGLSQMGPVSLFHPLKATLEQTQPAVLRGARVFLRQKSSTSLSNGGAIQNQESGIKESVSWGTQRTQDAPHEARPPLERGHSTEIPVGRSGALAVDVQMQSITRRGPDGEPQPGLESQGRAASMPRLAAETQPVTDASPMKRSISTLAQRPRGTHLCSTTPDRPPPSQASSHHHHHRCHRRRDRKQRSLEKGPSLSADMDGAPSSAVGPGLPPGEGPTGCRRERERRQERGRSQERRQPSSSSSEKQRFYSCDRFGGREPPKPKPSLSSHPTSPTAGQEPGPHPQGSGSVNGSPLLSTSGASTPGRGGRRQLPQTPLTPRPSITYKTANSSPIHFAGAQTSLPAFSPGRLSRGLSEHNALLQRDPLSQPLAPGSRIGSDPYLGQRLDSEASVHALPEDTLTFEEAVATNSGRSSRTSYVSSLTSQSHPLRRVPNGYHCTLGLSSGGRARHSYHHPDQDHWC
Sequence (P54284 whole entry partner): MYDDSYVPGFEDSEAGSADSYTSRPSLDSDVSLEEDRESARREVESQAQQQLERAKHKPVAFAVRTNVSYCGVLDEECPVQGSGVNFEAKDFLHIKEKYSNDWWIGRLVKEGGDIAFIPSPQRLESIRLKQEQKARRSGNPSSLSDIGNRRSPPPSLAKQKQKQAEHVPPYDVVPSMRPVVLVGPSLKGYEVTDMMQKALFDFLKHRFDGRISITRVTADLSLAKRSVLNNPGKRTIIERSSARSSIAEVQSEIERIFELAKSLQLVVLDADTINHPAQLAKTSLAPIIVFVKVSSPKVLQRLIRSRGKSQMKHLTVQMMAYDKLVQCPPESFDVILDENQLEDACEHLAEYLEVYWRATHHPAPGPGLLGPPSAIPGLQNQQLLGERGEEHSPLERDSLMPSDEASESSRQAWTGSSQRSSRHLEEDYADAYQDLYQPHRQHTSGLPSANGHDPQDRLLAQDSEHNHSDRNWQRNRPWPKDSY
Sequence (P54289 25-946 partner limits assumed): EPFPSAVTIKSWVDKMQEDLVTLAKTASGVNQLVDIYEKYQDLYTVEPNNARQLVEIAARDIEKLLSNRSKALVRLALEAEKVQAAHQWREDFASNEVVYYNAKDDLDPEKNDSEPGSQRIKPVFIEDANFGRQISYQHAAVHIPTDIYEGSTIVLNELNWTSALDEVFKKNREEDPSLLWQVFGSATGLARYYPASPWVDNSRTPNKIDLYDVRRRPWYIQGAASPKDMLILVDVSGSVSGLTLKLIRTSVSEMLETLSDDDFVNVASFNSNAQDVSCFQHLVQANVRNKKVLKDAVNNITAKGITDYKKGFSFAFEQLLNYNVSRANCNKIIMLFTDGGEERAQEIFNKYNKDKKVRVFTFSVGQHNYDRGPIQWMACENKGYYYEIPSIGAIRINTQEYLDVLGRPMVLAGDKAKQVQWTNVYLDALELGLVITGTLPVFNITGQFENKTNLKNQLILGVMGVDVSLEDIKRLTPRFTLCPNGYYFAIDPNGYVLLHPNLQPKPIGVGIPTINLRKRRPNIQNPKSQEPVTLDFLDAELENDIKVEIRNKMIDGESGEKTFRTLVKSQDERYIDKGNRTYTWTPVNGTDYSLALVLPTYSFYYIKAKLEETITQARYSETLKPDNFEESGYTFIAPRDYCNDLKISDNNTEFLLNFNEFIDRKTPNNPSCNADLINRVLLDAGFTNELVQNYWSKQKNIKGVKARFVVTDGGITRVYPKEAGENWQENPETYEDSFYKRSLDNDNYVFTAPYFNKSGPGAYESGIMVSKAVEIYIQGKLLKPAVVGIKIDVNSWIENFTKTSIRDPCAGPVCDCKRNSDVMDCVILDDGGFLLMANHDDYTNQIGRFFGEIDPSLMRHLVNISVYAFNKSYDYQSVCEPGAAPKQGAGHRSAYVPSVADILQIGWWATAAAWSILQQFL
Sequence (P54289 947-1103 partner limits assumed): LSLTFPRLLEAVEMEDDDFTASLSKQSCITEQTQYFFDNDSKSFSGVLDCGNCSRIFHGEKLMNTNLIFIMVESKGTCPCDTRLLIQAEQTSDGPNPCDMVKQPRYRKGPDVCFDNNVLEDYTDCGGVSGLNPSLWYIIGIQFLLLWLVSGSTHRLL
Experiment: hCaV2.2 assay (IonWorks planar array electrophysiology, HEK293 stable cell line)
Assay type: cell-based
Details: inhibition of current elicited by the 1st depolarizing pulse by 50%, HEK293 cells expressing human CaV2.2 α/β3/α2δ1; read-out: mean pIC50 value (tonic pIC50) (converted)

Example results:
ENTRY_SMILES	IC50
C[C@@H]1CN(C(=O)c2cnn3cccnc23)CCN1S(=O)(=O)c1ccc(C(F)(F)F)cc1	≥ 31.6 µM
C[C@@H]1CN(S(=O)(=O)c2ccc(OC(F)(F)F)cc2)CCN1C(=O)c1cnn2cccnc12	≥ 31.6 µM

Required: IC50, one value per molecule below.
1. Cc1cc(C#N)ccc1S(=O)(=O)N1CCN(C(=O)c2c(C)nn3cccnc23)[C@@H](C)C1
2. C[C@H]1CN(S(=O)(=O)c2ccc(OC(F)(F)F)cc2)CCN1C(=O)c1cnn2cccnc12
3. C[C@H]1CN(C(=O)c2cnn3cccnc23)CCN1S(=O)(=O)c1ccc(C(F)(F)F)cc1
4. O=C(c1cnn2cccnc12)N1CCN(S(=O)(=O)c2ccc(OC(F)(F)F)cc2)CC1
5. Cc1cnc2c(C(=O)N3CCN(S(=O)(=O)c4ccc(C#N)cc4C)C[C@@H]3C)cnn2c1
6. O=C(c1cnn2cccnc12)N1CCN(S(=O)(=O)c2ccc(C(F)(F)F)cc2)CC1
7. C[C@H]1CN(S(=O)(=O)c2ccc(C(F)(F)F)cc2)CCN1C(=O)c1cnn2cc(F)cnc12

≥ 31.6 µM
≥ 31.6 µM
≥ 31.6 µM
≥ 31.6 µM
≥ 31.6 µM
≥ 31.6 µM
≥ 10 µM

Required: IC50, one value per molecule below.
1. Cc1cc(C#N)ccc1S(=O)(=O)N1CCN(C(=O)c2cnn3cc(Cl)cnc23)[C@@H](C)C1
2. C[C@@H]1CN(S(=O)(=O)c2ccc(C(F)(F)F)cc2)CCN1C(=O)c1cnn2cccnc12
3. Cc1cnc2c(C(=O)N3CCN(S(=O)(=O)c4ccc(C(F)(F)F)cc4)CC3)cnn2c1

≥ 10 µM
≥ 31.6 µM
≥ 31.6 µM

Required: IC50, one value per molecule below.
1. Cc1ccc(C(F)(F)F)cc1S(=O)(=O)N1CCN(C(=O)c2cnn3cccnc23)CC1
2. C[C@@H]1CN(C(=O)c2cnn3cccnc23)CCN1S(=O)(=O)c1ccc(OC(F)(F)F)cc1
3. Cc1ccc(C(F)(F)F)cc1S(=O)(=O)N1CCN(C(=O)c2cnn3cccnc23)[C@@H](C)C1
4. C[C@H]1CN(S(=O)(=O)c2ccc(C(F)(F)F)cc2)CCN1C(=O)c1cnn2cccnc12

≥ 31.6 µM
≥ 31.6 µM
≥ 31.6 µM
≥ 10 µM
